- Tested on: Yap1 mRNA
- Protocol Text: Antisense inhibition of human Yap1 in A-431 cells by cEt gapmers, single dose (Example 3, RTS36584)
- Type: cell-based
- Settings: Table 26; Yap1 mRNA by 3-10-3 cEt gapmers targeting SEQ ID NO.: 1, and 2; percent of untreated control
Strand notation (5' to 3'): a small letter for the sugar, then the base; units joined by * are phosphorothioate-linked, units joined directly phosphodiester-linked; [ ] holds rarer units or linkages, { } end groups; capitals alone tell only the bases. k = constrained ethyl (cEt); [5mC] = 5-methylcytosine; d = 2'-deoxy (DNA)
The entries below are paired with their reported YAP1 (% UTC).
Response body: numeric value in % UTC, unit text excluded.

Provide one value: measured YAP1 (% UTC) of 1075628 (antisense k[5mC]*k[5mC]*kG*d[5mC]*dA*dA*dA*dA*dT*dA*dT*dT*dA*kA*kT*kT) [compound 1075628]
118

Provide one value: measured YAP1 (% UTC) of 1075308 (antisense kA*kA*kT*dT*dA*dA*dA*d[5mC]*dG*dA*dA*dA*d[5mC]*kA*k[5mC]*kG) [compound 1075308]
97

Provide one value: measured YAP1 (% UTC) of 1075276 (kG*kA*k[5mC]*d[5mC]*dA*dA*dT*dA*d[5mC]*dA*dA*dT*dG*kG*kG*kA; antisense) [compound 1075276]
78

Provide one value: measured YAP1 (% UTC) of 1074956 (antisense kA*k[5mC]*k[5mC]*d[5mC]*dG*dG*dG*dT*dT*dT*dT*dT*dG*kT*k[5mC]*kA) [compound 1074956]
104

Provide one value: measured YAP1 (% UTC) of 1075692 (kT*kA*kA*dG*dA*dA*d[5mC]*dA*d[5mC]*d[5mC]*dA*dT*dA*kG*k[5mC]*kA; antisense) [compound 1075692]
11

---

- System: Yap1 mRNA
- Protocol Text: Dose-dependent inhibition of human Yap1 in A-431 cells (Example 8, 10,000 cells per well, RTS4814)
- Assay type: cell-based
- Settings: 31.3 nM; A-431 cells, 10,000 cells per well, free uptake, approximately 48 hours, RTS4814
Strand notation (5' to 3'): a small letter for the sugar, then the base; units joined by * are phosphorothioate-linked, units joined directly phosphodiester-linked; [ ] holds rarer units or linkages, { } end groups; capitals alone tell only the bases. k = constrained ethyl (cEt); [5mC] = 5-methylcytosine; d = 2'-deoxy (DNA)
Quantity Name: Yap1 mRNA, % UTC (% UTC)
Response body: numeric value in % UTC, unit text excluded.

| Substance | Yap1 mRNA, % UTC / % UTC |
| --- | --- |
| 1076393 (antisense k[5mC]*kT*kT*dT*dA*d[5mC]*dT*dT*dA*d[5mC]*dT*dG*dG*kT*kG*kG) [compound 1076393] | 54 |
| 1076049 (kA*kG*kA*dT*dT*dA*dA*dA*dG*dG*d[5mC]*dT*dG*kG*kA*kA; antisense) [compound 1076049] | 61 |

// switching to the query substance
Provide one value: measured Yap1 mRNA, % UTC of 1074723 (antisense kG*kG*kT*dA*dA*dA*dG*dG*dA*dA*dG*dA*dT*k[5mC]*kT*k[5mC]) [compound 1074723]
56

---

The entries below are paired with their reported MON.
- Protocol Text: Cynomolgus monkey tolerability, hematology (Example 34)
- Type: in vivo, cynomolgus monkeys
- Settings: cynomolgus monkey, in vivo, sc, 35 mg/kg
// unit must come after the numeric part

| Substance | Endpoint Result |
| --- | --- |
| 1197270 (TTAAAGTGTATGTCAG; cEt gapmer with 2'-OMe nucleoside, phosphorothioate, further chemistry not given here) [compound 1197270] | 3.5% |
| 1198440 (AAGTGTATGTCAGAAG; cEt, 2'-MOE, 5-methylcytosine, phosphorothioate modifications, further chemistry not given here) [compound 1198440] | 3.2% |

Provide one value: measured MON of 1198872 (TGTATGTCAGAAGAGT; chemically modified gapmer, further chemistry not given here) [compound 1198872]
2.2%

Provide one value: measured MON of 1198623 (CTAAGTAAGGTTTCCC; modified gapmer, further chemistry not given here) [compound 1198623]
2.0%

Provide one value: measured MON of 1198831 (CACTTTTACATTAGGA; chemically modified gapmer, further chemistry not given here) [compound 1198831]
3.3%

---

- Protocol Text: Tolerability in Sprague-Dawley rats, body and organ weights (Example 20)
- Type: in vivo
- Settings: male Sprague-Dawley rats, 50 mg/kg s.c. weekly for 6 weeks (7 doses), terminal, prior to necropsy
Strand notation (5' to 3'): a small letter for the sugar, then the base; units joined by * are phosphorothioate-linked, units joined directly phosphodiester-linked; [ ] holds rarer units or linkages, { } end groups; capitals alone tell only the bases. k = constrained ethyl (cEt); [5mC] = 5-methylcytosine; d = 2'-deoxy (DNA)
Quantity Name: body weight
// unit must come after the numeric part

For orientation, consider the following solved cases.
| Substance | body weight |
| --- | --- |
| 1076481 (k[5mC]*kT*kA*dA*dG*dT*dA*dA*dG*dG*dT*dT*dT*k[5mC]*k[5mC]*k[5mC]) [compound 1076481] | 367 g |
| 1076187 (kG*kA*kT*dT*dT*dA*dG*dG*dA*dT*dG*d[5mC]*dA*kT*kG*kG; antisense) [compound 1076187] | 344 g |
| 1097224 (k[5mC]*kT*k[5mC]*dT*dT*dA*dT*dA*dT*dG*dG*dT*dT*kT*kT*kG; antisense) [compound 1097224] | 316 g |

Provide one value: measured body weight of 958499 (ATTAGAGTATGTGGCA; 3-10-3 cEt gapmer, further chemistry not given here) [compound 958499]
333 g

Provide one value: measured body weight of 1076453 (GTAATATTGCAATCTG; 3-10-3 cEt gapmer, further chemistry not given here) [compound 1076453]
371 g

Provide one value: measured body weight of 1074755 (k[5mC]*kA*k[5mC]*dT*dT*dT*dT*dA*d[5mC]*dA*dT*dT*dA*kG*kG*kA; antisense) [compound 1074755]
357 g

---

- Tested on: Yap1 mRNA
- Protocol Text: Antisense inhibition of human Yap1 in SNU-449 cells by modified oligonucleotides, single dose (Example 5, RTS36584)
- Type: cell-based
- Settings: Table 51; Yap1 mRNA remaining as percent of untreated control (UT), SNU-449 cells, single dose
Strand notation (5' to 3'): a small letter for the sugar, then the base; units joined by * are phosphorothioate-linked, units joined directly phosphodiester-linked; [ ] holds rarer units or linkages, { } end groups; capitals alone tell only the bases. k = constrained ethyl (cEt); [5mC] = 5-methylcytosine; d = 2'-deoxy (DNA); m = 2'-O-methyl
Mark 1 (yes) only when YAP1 (% UT) stays strictly below 30 % UT. Values equal to the cut-off are 0 (no).

| Substance | Assay System | Group |
| --- | --- | --- |
| 1200796 (kT*kT*kA*dG*dA*mG*dT*dA*dT*dG*dT*dG*dG*k[5mC]*kA*kA; antisense) [Compound 1200796] | Yap1 mRNA | 1 (yes) |
| 1197274 (kA*kG*kT*dA*mA*dG*dG*dT*dT*dT*d[5mC]*d[5mC]*d[5mC]*kA*kG*kA) [Compound 1197274] | Yap1 mRNA | 0 (no) |
| 1197256 (antisense kA*kT*kT*dT*mA*dG*dG*dA*dT*dG*d[5mC]*dA*dT*kG*kG*kT) [Compound 1197256] | Yap1 mRNA | 0 (no) |
| 1197297 (GTGCUTTGGAAGATCT; cEt/MOE gapmer, phosphorothioate, 5-methylcytosine, chemistry not fully specified) [Compound 1197297] | Yap1 mRNA | 1 (yes) |
| 1197273 (kT*kA*kA*dG*mG*dT*dT*dT*d[5mC]*d[5mC]*d[5mC]*dA*dG*kA*kT*kT) [Compound 1197273] | Yap1 mRNA | 0 (no) |

Record 1197301 (AGATUTAGGATGCATG; chemistry not fully specified) [Compound 1197301] : is its YAP1 (% UT) strictly below 30 % UT?
0 (no)

---

The entries below are paired with their reported YAP1 (% UT).
- Test system: Yap1 mRNA
- Protocol Text: Antisense inhibition of human Yap1 in SNU-449 cells by modified oligonucleotides, single dose (Example 5, RTS36584)
- Format: cell-based
- Settings: Table 46; Yap1 mRNA as percent of untreated control, SNU-449 cells, single dose
Strand notation (5' to 3'): a small letter for the sugar, then the base; units joined by * are phosphorothioate-linked, units joined directly phosphodiester-linked; [ ] holds rarer units or linkages, { } end groups; capitals alone tell only the bases. e = 2'-O-(2-methoxyethyl) (MOE); k = constrained ethyl (cEt); [5mC] = 5-methylcytosine; d = 2'-deoxy (DNA)
Response body: numeric value in % UT, unit text excluded.

| Substance | Measurement Units | Endpoint Result |
| --- | --- | --- |
| 1198813 (antisense kA*kG*dT*dA*dT*dG*dT*dG*dG*d[5mC]*dA*kA*eT*kA*eA*kT) [Compound 1198813] | % UT | 55 |
| 1198884 (kT*kA*dA*dG*dT*dA*dA*dG*dG*dT*dT*kT*e[5mC]*k[5mC]*e[5mC]*kA; antisense) [Compound 1198884] | % UT | 28 |

// switching to the query substance
Provide one value: measured YAP1 (% UT) of 1198885 (k[5mC]*kT*dA*dA*dG*dT*dA*dA*dG*dG*dT*kT*eT*k[5mC]*e[5mC]*k[5mC]; antisense) [Compound 1198885]
41
